target: B-RAF^V600E kinase (Homo sapiens (Human), UniProt P15056, V600E); experiment: LanthaScreen Eu kinase binding assay (B-RAF V600E); settings: IC50 category; tracer 178 competition, 5 hours; read-out: BRAF^V600E binding affinity
Sequence (P15056 whole entry V600E): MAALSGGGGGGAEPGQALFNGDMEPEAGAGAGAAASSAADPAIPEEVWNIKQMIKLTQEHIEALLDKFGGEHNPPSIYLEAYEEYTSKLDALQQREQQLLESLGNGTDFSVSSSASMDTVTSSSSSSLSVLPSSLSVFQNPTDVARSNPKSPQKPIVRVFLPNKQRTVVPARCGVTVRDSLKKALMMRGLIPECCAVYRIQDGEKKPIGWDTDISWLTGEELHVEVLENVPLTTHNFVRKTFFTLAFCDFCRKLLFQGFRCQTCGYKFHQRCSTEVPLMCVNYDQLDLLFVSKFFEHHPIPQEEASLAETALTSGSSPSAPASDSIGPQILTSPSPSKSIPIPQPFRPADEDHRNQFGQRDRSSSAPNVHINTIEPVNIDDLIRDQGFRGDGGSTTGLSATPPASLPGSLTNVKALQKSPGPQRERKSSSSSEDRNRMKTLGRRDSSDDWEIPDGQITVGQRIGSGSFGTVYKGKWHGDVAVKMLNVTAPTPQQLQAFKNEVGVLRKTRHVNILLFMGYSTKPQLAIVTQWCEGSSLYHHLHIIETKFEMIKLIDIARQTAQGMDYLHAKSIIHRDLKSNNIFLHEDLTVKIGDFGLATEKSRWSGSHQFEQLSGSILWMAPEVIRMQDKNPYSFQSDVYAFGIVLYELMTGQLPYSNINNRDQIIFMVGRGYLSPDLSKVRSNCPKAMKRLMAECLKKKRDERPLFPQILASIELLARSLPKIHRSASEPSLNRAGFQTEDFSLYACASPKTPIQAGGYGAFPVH
pIC50: −log10 of the molar value.

{"columns": ["molecule", "pIC50"],
 "data": [
  ["CS(=O)(=O)c1ccc(-c2cnc(C3COc4ccc(Oc5ccnc6c5CCC(=O)N6)cc4C3)[nH]2)cc1 (stereo not drawn)", "< 7.00"],
  ["Cc1cc(Oc2ccc3c(c2)CC(c2ncc(-c4ccccc4)[nH]2)CO3)ccn1 (stereo not drawn)", "7.00 to 8.40"],
  ["CC(C)(C)c1c[nH]c(C2COc3ccc(Oc4ccnc5c4CCC(=O)N5)cc3C2)n1 (stereo not drawn)", "7.00 to 8.40"],
  ["O=C1CCc2c(Oc3ccc4c(c3)CC(c3nc(-c5ccsc5)c[nH]3)CO4)ccnc2N1 (stereo not drawn)", "> 8.40"],
  ["O=C1CCc2c(Oc3ccc4c(c3)CC(c3nc(-c5coc6ccccc56)c[nH]3)CO4)ccnc2N1 (stereo not drawn)", "> 8.40"],
  ["O=C1CCc2c(Oc3ccc4c(c3)CC(c3ncc(-c5ccc(F)cc5)[nH]3)CO4)ccnc2N1 (stereo not drawn)", "> 8.40"],
  ["O=C1CCc2c(Oc3ccc4c(c3)CC(c3nc(-c5ccncc5)c[nH]3)CO4)ccnc2N1 (stereo not drawn)", "> 8.40"],
  ["O=C1CCc2c(Oc3ccc4c(c3)CC(c3ncc(-c5ccc6c(c5)OCCO6)[nH]3)CO4)ccnc2N1 (stereo not drawn)", "7.00 to 8.40"],
  ["O=C1CCc2c(Oc3ccc4c(c3)CC(c3nc(-c5ccccc5)no3)CO4)ccnc2N1 (stereo not drawn)", "7.00 to 8.40"],
  ["O=C1CCc2c(Oc3ccc4c(c3)O[C@H](c3nc(-c5ccccc5)c[nH]3)CO4)ccnc2N1", "> 8.40"],
  ["O=C1CCc2c(Oc3ccc4c(c3)CC(c3nc(-c5cccs5)c[nH]3)CO4)ccnc2N1 (stereo not drawn)", "> 8.40"],
  ["O=C1CCc2c(Oc3ccc4c(c3)CC(c3ncc(-c5ccccc5Cl)[nH]3)CO4)ccnc2N1 (stereo not drawn)", "> 8.40"]
]}

----------
biological target: C-RAF Y340D/Y341D kinase (Homo sapiens (Human), UniProt P04049, Y340D/Y341D); test: LanthaScreen Eu kinase binding assay (C-RAF); settings: IC50 category; tracer 178 competition, 5 hours; read-out: CRAF binding affinity
Sequence (P04049 306-648 Y340D/Y341D): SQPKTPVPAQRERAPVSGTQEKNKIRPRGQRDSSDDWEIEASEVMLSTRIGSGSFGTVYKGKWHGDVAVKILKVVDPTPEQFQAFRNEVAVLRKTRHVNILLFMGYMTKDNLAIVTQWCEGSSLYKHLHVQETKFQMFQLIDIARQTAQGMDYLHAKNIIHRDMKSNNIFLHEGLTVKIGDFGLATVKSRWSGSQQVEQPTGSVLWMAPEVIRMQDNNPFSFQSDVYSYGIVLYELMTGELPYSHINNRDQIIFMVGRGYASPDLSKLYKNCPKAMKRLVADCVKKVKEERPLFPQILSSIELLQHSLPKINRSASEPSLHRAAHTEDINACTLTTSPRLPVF
attribute_measured: IC50

{"columns": ["compound", "result"],
 "data": [
  ["O=C1CCc2c(Oc3ccc4c(c3)CC(c3ncc(-c5ccc6c(c5)OCCO6)[nH]3)CO4)ccnc2N1 (stereo not drawn)", "< 4 nM"],
  ["O=C1CCc2c(Oc3ccc4c(c3)CC(c3nc5ccccc5[nH]3)CO4)ccnc2N1 (stereo not drawn)", "< 4 nM"],
  ["O=C1CCc2c(Oc3ccc4c(c3)CC(c3cc(-c5ccccc5)[nH]n3)CO4)ccnc2N1 (stereo not drawn)", "< 4 nM"],
  ["Cc1cc(Oc2ccc3c(c2)CC(c2ncc(-c4ccccc4)[nH]2)CO3)ccn1 (stereo not drawn)", "4 to 100 nM"],
  ["CS(=O)(=O)c1ccc(-c2cnc(C3COc4ccc(Oc5ccnc6c5CCC(=O)N6)cc4C3)[nH]2)cc1 (stereo not drawn)", "4 to 100 nM"],
  ["O=C1CCc2c(Oc3ccc4c(c3)CC(c3ncc(-c5ccc6c(c5)OCO6)[nH]3)CO4)ccnc2N1 (stereo not drawn)", "< 4 nM"],
  ["O=C1CCc2c(Oc3ccc4c(c3)C=C(c3nc(-c5ccccc5)c[nH]3)CO4)ccnc2N1", "< 4 nM"],
  ["O=C1CCc2c(Oc3ccc4c(c3)CC(c3ncc(-c5cccnc5)[nH]3)CO4)ccnc2N1 (stereo not drawn)", "< 4 nM"],
  ["O=C1CCc2c(Oc3ccc4c(c3)CC(c3ncc(-c5cccc(Cl)c5)[nH]3)CO4)ccnc2N1 (stereo not drawn)", "< 4 nM"],
  ["O=C1CCc2c(Oc3ccc4c(c3)CC(c3ncc(-c5ccc(F)cc5)[nH]3)CO4)ccnc2N1 (stereo not drawn)", "< 4 nM"],
  ["O=C1CCc2c(Oc3ccc4c(c3)CC(c3nc5cccc(Cl)c5[nH]3)CO4)ccnc2N1 (stereo not drawn)", "4 to 100 nM"],
  ["O=C1CCc2c(Oc3ccc4c(c3)O[C@H](c3nc(-c5ccccc5)c[nH]3)CO4)ccnc2N1", "< 4 nM"]
]}

----------
target: B-RAF^V600E kinase (Homo sapiens (Human), UniProt P15056, V600E); experiment: LanthaScreen Eu kinase binding assay (B-RAF V600E); details: IC50 category; tracer 178 competition, 5 hours; read-out: BRAF^V600E binding affinity
Each record here notes measured IC50.
attribute_measured: IC50

{"columns": ["compound", "result"],
 "data": [
  ["O=C1CCc2c(Oc3ccc4c(c3)CC(c3nc5ccccc5[nH]3)CO4)ccnc2N1 (centres unmarked) [Example 1]", "< 4 nM"],
  ["O=C1CCc2c(Oc3ccc4c(c3)O[C@@H](c3nc(-c5ccccc5)c[nH]3)CO4)ccnc2N1 [Example 19]", "< 4 nM"],
  ["O=C1CCc2c(Oc3ccc4c(c3)C=C(c3nc(-c5ccccc5)c[nH]3)CO4)ccnc2N1 [Example 16]", "4 to 100 nM"],
  ["O=C1CCc2c(Oc3ccc4c(c3)CC(c3ncc(-c5ccc6c(c5)OCO6)[nH]3)CO4)ccnc2N1 (centres unmarked) [Example 14]", "< 4 nM"],
  ["O=C1CCc2c(Oc3ccc4c(c3)CC(c3ncc(-c5cccnc5)[nH]3)CO4)ccnc2N1 (centres unmarked) [Example 11]", "< 4 nM"],
  ["O=C1CCc2c(Oc3ccc4c(c3)CC(c3nc5cccc(Cl)c5[nH]3)CO4)ccnc2N1 (centres unmarked) [Example 2]", "4 to 100 nM"],
  ["O=C1CCc2c(Oc3ccc4c(c3)CC(c3cc(-c5ccccc5)[nH]n3)CO4)ccnc2N1 (centres unmarked) [Example 18]", "< 4 nM"],
  ["O=C1CCc2c(Oc3ccc4c(c3)CC(c3ncc(-c5cccc(Cl)c5)[nH]3)CO4)ccnc2N1 (centres unmarked) [Example 9]", "< 4 nM"]
]}

----------
test system: ERK phosphorylation in A375 cells (B-RAF^V600E); assay: A375 AlphaScreen SureFire pERK1/2 cellular assay; type: cell-based; conditions: Homo sapiens, A-375, 0.5 h, 30 minutes treatment, read-out: A375 pERK inhibition IC50
pIC50: −log10 of the molar value.
Each record here notes measured pIC50.

{"columns": ["molecule", "pIC50"],
 "data": [
  ["O=C1CCc2c(Oc3ccc4c(c3)O[C@H](c3nc(-c5ccccc5)c[nH]3)CO4)ccnc2N1 [Example 20]", 6.55],
  ["O=C1CCc2c(Oc3ccc4c(c3)O[C@@H](c3nc(-c5ccccc5)c[nH]3)CO4)ccnc2N1 [Example 19]", 6.81],
  ["O=C1CCc2c(Oc3ccc4c(c3)CC(c3nc(-c5ccsc5)c[nH]3)CO4)ccnc2N1 (stereo not drawn) [Example 6]", 7.63]
]}

----------
biological target: B-RAF^V600E kinase (Homo sapiens (Human), UniProt P15056, V600E); assay: LanthaScreen Eu kinase binding assay (B-RAF V600E); conditions: tracer 178 competition, 5 hours; read-out: BRAF^V600E binding affinity IC50
pIC50: −log10 of the molar value.

{"columns": ["compound", "target_under_test", "pIC50"],
 "data": [
  ["O=C1CCc2c(Oc3ccc4c(c3)CC(c3nc(-c5cccs5)c[nH]3)CO4)ccnc2N1 (centres unmarked) [Example 7]", "B-RAF^V600E kinase (Homo sapiens (Human), UniProt P15056, V600E)", 8.96],
  ["O=C1CCc2c(Oc3ccc4c(c3)CC(c3nc(-c5ccsc5)c[nH]3)CO4)ccnc2N1 (centres unmarked) [Example 6]", "B-RAF^V600E kinase (Homo sapiens (Human), UniProt P15056, V600E)", 9.00]
]}

----------
target: C-RAF Y340D/Y341D kinase (Homo sapiens (Human), UniProt P04049, Y340D/Y341D); experiment: LanthaScreen Eu kinase binding assay (C-RAF); conditions: tracer 178 competition, 5 hours; read-out: CRAF binding affinity IC50
pIC50: −log10 of the molar value.
attribute_measured: pIC50

{"columns": ["molecule", "attribute_measured", "numeric_readout"],
 "data": [
  ["O=C1CCc2c(Oc3ccc4c(c3)CC(c3nc(-c5cccs5)c[nH]3)CO4)ccnc2N1 (centres unmarked) [Example 7]", "pIC50", 9.30],
  ["O=C1CCc2c(Oc3ccc4c(c3)CC(c3nc(-c5ccsc5)c[nH]3)CO4)ccnc2N1 (centres unmarked) [Example 6]", "pIC50", 9.40]
]}
